Reference for the values: paper PMC2791411

Target: hVAP-1 (Homo sapiens, UniProt Q16853)
Sequence (Q16853 whole entry): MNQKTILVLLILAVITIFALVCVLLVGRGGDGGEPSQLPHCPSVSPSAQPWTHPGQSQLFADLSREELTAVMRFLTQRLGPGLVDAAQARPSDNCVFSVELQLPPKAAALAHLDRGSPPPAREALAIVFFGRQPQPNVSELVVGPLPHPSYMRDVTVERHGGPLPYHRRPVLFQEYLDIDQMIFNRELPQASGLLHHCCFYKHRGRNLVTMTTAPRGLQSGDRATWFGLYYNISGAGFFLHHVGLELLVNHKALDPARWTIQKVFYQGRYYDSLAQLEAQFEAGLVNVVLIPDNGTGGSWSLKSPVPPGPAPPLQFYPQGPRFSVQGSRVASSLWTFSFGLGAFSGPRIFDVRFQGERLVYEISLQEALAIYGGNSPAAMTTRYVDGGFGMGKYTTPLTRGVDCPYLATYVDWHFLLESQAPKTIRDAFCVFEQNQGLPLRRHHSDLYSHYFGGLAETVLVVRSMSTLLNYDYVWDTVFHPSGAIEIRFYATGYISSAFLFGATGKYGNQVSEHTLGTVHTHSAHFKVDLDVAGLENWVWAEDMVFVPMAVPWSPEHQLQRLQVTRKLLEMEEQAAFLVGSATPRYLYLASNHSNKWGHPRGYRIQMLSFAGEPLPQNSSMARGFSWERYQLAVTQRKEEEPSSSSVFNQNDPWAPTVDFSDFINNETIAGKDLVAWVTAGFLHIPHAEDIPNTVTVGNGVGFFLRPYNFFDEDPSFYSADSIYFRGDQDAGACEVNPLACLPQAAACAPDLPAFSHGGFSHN
endpointLabel: Ki (µM)
Quick reminder: number only, in µM, skip the unit.

Recorded result, N=C(N)c1ccc(OCCCCCOc2ccc(C(=N)N)cc2)cc1 , Ki: 1.1

###

Target: hDAO (human diamine oxidase) (Homo sapiens, UniProt P19801)
Sequence (P19801 20-751): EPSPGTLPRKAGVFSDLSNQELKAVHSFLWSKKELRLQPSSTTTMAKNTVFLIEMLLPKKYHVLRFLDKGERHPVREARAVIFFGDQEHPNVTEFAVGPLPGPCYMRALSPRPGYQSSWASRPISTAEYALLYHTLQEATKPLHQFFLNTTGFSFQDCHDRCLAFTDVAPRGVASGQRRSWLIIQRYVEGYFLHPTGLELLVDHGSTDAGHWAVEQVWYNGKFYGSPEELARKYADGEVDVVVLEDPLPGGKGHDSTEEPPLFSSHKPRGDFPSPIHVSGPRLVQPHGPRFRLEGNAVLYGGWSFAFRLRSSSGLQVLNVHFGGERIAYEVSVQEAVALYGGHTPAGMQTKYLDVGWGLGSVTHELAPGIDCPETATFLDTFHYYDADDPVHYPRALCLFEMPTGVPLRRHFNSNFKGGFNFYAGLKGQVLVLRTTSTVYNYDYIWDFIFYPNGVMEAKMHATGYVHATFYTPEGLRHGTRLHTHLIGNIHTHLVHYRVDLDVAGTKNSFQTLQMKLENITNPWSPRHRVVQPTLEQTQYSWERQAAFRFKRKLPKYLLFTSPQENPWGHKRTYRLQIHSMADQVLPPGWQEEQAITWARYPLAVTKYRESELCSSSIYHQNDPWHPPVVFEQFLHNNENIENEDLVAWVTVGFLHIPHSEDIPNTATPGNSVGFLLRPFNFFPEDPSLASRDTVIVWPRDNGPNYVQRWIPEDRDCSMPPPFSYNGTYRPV
Test: Inhibition of hDAO putrescine oxidation
Type: biochemical
Details: hDAO, putrescine oxidation, global nonlinear regression
endpointLabel: Mode of Inhibition

compound=CN/C(=N/CCSCc1nc[nH]c1C)NC#N result=Mixed
compound=N=C(N)c1ccc(N=NNc2ccc(C(=N)N)cc2)cc1 result=Mixed
compound=Clc1cccc(Cl)c1N=C1NCCN1 result=Mixed
